molecular target: His-tagged human Aurora A (Homo sapiens, UniProt O14965)
Sequence (O14965 whole entry): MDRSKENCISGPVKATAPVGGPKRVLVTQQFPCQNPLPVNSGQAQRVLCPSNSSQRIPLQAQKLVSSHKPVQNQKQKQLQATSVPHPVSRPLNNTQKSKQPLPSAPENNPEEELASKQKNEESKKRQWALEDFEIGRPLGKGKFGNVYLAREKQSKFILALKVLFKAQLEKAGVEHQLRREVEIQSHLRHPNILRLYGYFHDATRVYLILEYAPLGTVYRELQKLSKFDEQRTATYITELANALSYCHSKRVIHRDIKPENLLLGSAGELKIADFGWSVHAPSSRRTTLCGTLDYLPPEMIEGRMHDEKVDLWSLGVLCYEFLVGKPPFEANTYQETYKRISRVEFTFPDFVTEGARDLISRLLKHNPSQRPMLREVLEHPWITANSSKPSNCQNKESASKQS

{"columns": ["STRUCTURE_SMILES", "IC50 / nM"],
 "data": [
  ["O=c1[nH]nc([C@]2(Cc3cncc(Nc4cc[nH]n4)n3)CC[C@@H](Oc3cccc(Cl)c3F)CC2)o1", 0.19]
]}

* * *

target: GST-tagged human Aurora B(AurB)/His-tagged human INCENP complex proteins (Homo sapiens); construct: GST; assay: Aurora B inhibitory activity (Method A, IMAP kit); conditions: 40 μM ATP, 25° C., 45 minutes
Sequence (Q96GD4 whole entry): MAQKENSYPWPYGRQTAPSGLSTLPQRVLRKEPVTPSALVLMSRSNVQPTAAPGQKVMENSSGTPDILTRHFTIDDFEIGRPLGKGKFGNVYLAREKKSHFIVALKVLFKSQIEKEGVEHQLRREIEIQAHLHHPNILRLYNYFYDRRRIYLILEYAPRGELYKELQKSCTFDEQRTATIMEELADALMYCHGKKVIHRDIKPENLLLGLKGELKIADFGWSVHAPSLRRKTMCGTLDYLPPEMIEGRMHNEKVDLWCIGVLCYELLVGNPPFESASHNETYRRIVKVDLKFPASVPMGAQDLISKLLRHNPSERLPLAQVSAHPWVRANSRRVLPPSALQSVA
Sequence (Q9NQS7 803-916 partner limits assumed): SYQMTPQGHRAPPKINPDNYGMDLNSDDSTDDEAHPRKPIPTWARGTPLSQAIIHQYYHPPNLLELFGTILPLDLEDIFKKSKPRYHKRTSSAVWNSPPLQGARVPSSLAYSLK
pIC50: −log10 of the molar value.
MEASUREMENT_NAME: pIC50

{"columns": ["STRUCTURE_SMILES", "REPORTED"],
 "data": [
  ["Fc1c(O[C@H]2CC[C@](Cc3cccc(Nc4cc[nH]n4)n3)(c3nncs3)CC2)cccc1C(F)(F)F", 6.66],
  ["O=c1[nH]nc([C@]2(Cc3cncc(Nc4cc[nH]n4)n3)CC[C@@H](Oc3cccc(Cl)c3F)CC2)o1", 6.17]
]}
